- Test system: NCI-H23
- test method notes: NCI tumour cell line growth inhibition, 48 h
Activity calls are given as the source filed them. Cut-off read from the data, not from the text of the source: active = GI50 up to about 1.1 µM and inactive = higher.
Respond only with the outcome that fits, drawn from active, inactive

Any idea what this test logged for COc1cc(OC)c(OC)cc1/C=C\c1ccnc2ccccc12 ?
active

Any idea what this test logged for CCCCS(=O)(=O)Nc1ccc(Nc2c3ccccc3nc3ccccc23)c(OC)c1 ?
active

Any idea what this test logged for c1cnc2nc3n(c2c1)CSC3 ?
inactive

Any idea what this test logged for COC(=O)/C=C/c1ccccc1N=[S@](C)(=O)c1ccc(C)cc1 ?
inactive

Any idea what this test logged for CC(C)(C)c1cc(C(=O)/C=C/C=C/c2ccccc2)cc(C(C)(C)C)c1O ?
inactive

Any idea what this test logged for CC1(Cl)C(=O)NC(=O)N([C@H]2C[C@H](O)[C@@H](CO)O2)C1N=[N+]=[N-] (stereo not given in full) ?
inactive

Any idea what this test logged for Cc1nc2ccc(S(=O)(=O)NS(=O)(=O)c3ccc(-c4ccccc4)cc3)cc2c(=O)n1NS(=O)(=O)c1ccc(-c2ccccc2)cc1 ?
inactive

Any idea what this test logged for C=C1C(=O)OC2C1C(OC(=O)/C(C)=C/C)CC(O)(CCl)C1C(OC(C)=O)C=C(C)C21O (stereo not given) ?
inactive

Any idea what this test logged for CC(=O)CCC1(c2ccccc2)OC(=O)C(C#N)=C1c1ccccc1 (stereo not given) ?
inactive

Any idea what this test logged for O=c1c2c3c(sc2nc2n1N=C(c1ccc([N+](=O)[O-])cc1)CS2)CCCC3 ?
inactive

====

- Tested on: NCI-H23
- test method notes: NCI tumour cell line growth inhibition, 48 h
Activity calls are given as the source filed them. No stated cut-off is given here; in the data, active = GI50 up to about 1.1 µM and inactive = higher.
Please respond with reported GI50 for every item in the list.

Look up GI50: COc1ccc2c(c1)CCCN2CCCCCCCCCCN(CCC(C)C)CCC(C)C
3.25 µM (inactive)

Look up GI50: C/C1=C\C=C(\C(C)C)CC/C(C(=O)O)=C\CC/C(C)=C/CC1 [NEOCROTOCEMBRANEIC ACID]
20.7 µM (inactive)

Look up GI50: C/C(=N\NC(=S)N1CC2CCC(CC2)C1)c1cccc(C)n1
2.49 µM (inactive)

Look up GI50: C1CCNCC1.Oc1ncnc2[nH]cc(CN3CCCCC3)c12
> 100 µM (inactive)

Look up GI50: CN1CCC2(CC1)/C(=N/C1CCCCC1)NC(=S)N2c1ccccc1
> 100 µM (inactive)

Look up GI50: CCOc1cc(C2CC(c3ccc(NS(=O)(=O)c4cc([N+](=O)[O-])ccc4C)cc3)=NN2)ccc1O (stereo unspecified)
28 µM (inactive)

Look up GI50: FC(F)(F)C1(Cl)C(Cl)(c2ccccc2)C1(Cl)c1ccccc1 (stereo unspecified)
14.3 µM (inactive)

Look up GI50: O=C(Cc1csc(-c2nc(CC(=O)NNc3ccccc3)cs2)n1)NNc1ccccc1
> 100 µM (inactive)

Look up GI50: O=C(/C(=C/c1ccccc1)c1ccccc1)N1c2ccccc2CC1c1c[nH]c2ccccc12 (stereo unspecified)
15 µM (inactive)

Look up GI50: CCOC(=O)CNC(=O)C(C)NC(=O)C(NC(=O)CC(c1ncc[nH]1)c1ncc[nH]1)C(C)CC (stereo unspecified)
> 100 µM (inactive)

Look up GI50: COc1ccc(O)c(/C=N/NC(=S)N2CCCCC2)c1
2.15 µM (inactive)

Look up GI50: O=c1[nH]nc(-c2ccccc2)n1/N=C/c1cccs1
36.6 µM (inactive)

Look up GI50: COc1cc2c(cc1OC)C/C(=N\O)c1cc(OC)c(OC)cc1/C=C\2
14.2 µM (inactive)

Look up GI50: COc1ccc2oc(=N)c(C(=O)Nc3ccccn3)cc2c1
> 100 µM (inactive)

Look up GI50: CCOC(=O)NNC(=O)NCCNC(=O)NNC(=O)OCC
> 100 µM (inactive)

Look up GI50: CCOC(=O)Cc1[nH]c(C(=O)c2ccccc2)cc1C(=O)c1ccccc1
17.4 µM (inactive)

Look up GI50: Cc1nn(C(=O)c2ccccc2O)c2c1C(c1ccccc1O)SC(=N)N2 (stereo unspecified)
2.94 µM (inactive)

Look up GI50: O=C(OCc1ccccc1)N(CCCCN(CCCNC(=O)C(F)(F)F)C(=O)OCc1ccccc1)CCCNC(=O)C(F)(F)F
> 100 µM (inactive)

Look up GI50: COc1cccc(C2c3cc4c(cc3OC(NNC(N)=O)C2C)OCO4)c1O (stereo unspecified)
3.17 µM (inactive)

Look up GI50: FC(F)(F)c1nc2ccc3[nH]c4c(-c5ccccc5)nccc4c3c2[nH]1
> 100 µM (inactive)

Look up GI50: O=C(O)CSc1nc2ccccc2[nH]1
> 100 µM (inactive)

Look up GI50: Cc1cc2nc3ccccc3n2c2nc(N)ccc12
43 µM (inactive)

Look up GI50: CN(C)CCCNC(=O)c1cc(NC(=O)c2cc(NS(=O)(=O)c3ccc4c(c3)C(=O)c3ccccc3C4=O)cn2C)cn1C
> 100 µM (inactive)

Look up GI50: C[C@]12CCC3c4ccc(O)cc4CC[C@H]3C1CC(=O)N(CCN1CCCC1)C2=O (stereo partly specified)
> 10 µM (inactive)

Look up GI50: CC1CC(NN)=Nc2ccccc2N1 (stereo unspecified)
> 100 µM (inactive)

Look up GI50: CCCCCCC(=O)O[C@H]1CC[C@H]2[C@@H]3CCC4C/C(=N/NC(=O)c5cccc6c(=O)c7ccccc7[nH]c56)C=C(C)[C@]4(C)[C@H]3CC[C@]12C (stereo partly specified)
> 25 µM (inactive)

====

Please respond with reported GI50 for every item in the list.
- Test system: HCC 2998
- test method notes: NCI tumour cell line growth inhibition, 48 h
Active and inactive are the calls of the source. Cut-off read from the data, not from the text of the source: active = GI50 up to about 1.1 µM and inactive = higher.

Look up GI50: COc1ccc(N2C(=O)C3c4[nH]c5c(C)cccc5c4C4CCC(C(C)C)CC4C3C2=O)cc1 (stereo not given)
10.3 µM (inactive)

Look up GI50: C[C@]12CCC3c4ccc(O)cc4CC[C@H]3C1CC(=O)N(CCN1CCCC1)C2=O (stereo not given in full)
> 10 µM (inactive)

Look up GI50: Cc1ccccc1-n1c2nc(=O)n(C)c(=O)c-2nc2ccccc21
10.8 µM (inactive)

Look up GI50: N/N=c1/nc2n(c3ncccc13)C=CNN2
> 100 µM (inactive)

Look up GI50: Cc1cc(O)c2c(c1)C(=O)c1c(c(O)cc(O)c1-c1c(O)cc(O)c3c1C(=O)c1cc(C)cc(O)c1C3=O)C2=O
11.4 µM (inactive)

====

Please respond with reported GI50 for every item in the list.
- System: OVCAR-8
- test method notes: NCI tumour cell line growth inhibition, 48 h
Activity calls are given as the source filed them. Rule as the data show it: active = GI50 up to about 1.1 µM and inactive = higher.

Please tell me: GI50 of O=C(O)CCN1C(=S)CSC1=S , system OVCAR-8?
> 100 µM (inactive)

Please tell me: GI50 of COc1c(C2=NC(C(C)C)CO2)ccc2ccccc12 (stereo unspecified) , system OVCAR-8?
41.5 µM (inactive)

Please tell me: GI50 of CCOC(=O)C1(C#N)C(C#N)(C#N)C1(C#N)C#N , system OVCAR-8?
> 100 µM (inactive)

Please tell me: GI50 of O=c1[nH]c(C2CCCCC2)nc2ccc(Cl)cc12 , system OVCAR-8?
> 100 µM (inactive)

Please tell me: GI50 of CSc1c([S+](C)[O-])[nH]c2cc(Br)cc(Br)c12 (stereo unspecified) , system OVCAR-8?
22 µM (inactive)

Please tell me: GI50 of CN(NC(=O)/C(=C/c1ccc(Cl)cc1)NC(=O)c1ccccc1)c1cn[nH]c(=O)c1Cl , system OVCAR-8?
46.9 µM (inactive)

Please tell me: GI50 of O=C(N/N=C(COc1cccc(Cl)c1)\N=C\c1ccncc1)c1ccncc1 , system OVCAR-8?
> 100 µM (inactive)

Please tell me: GI50 of COC(=O)/C=C/c1ccccc1N=[S@](C)(=O)c1ccc(C)cc1 , system OVCAR-8?
28.5 µM (inactive)

Please tell me: GI50 of O=C(/C(=C\c1ccc(Cl)cc1)c1ccccc1)c1ccccc1 , system OVCAR-8?
> 100 µM (inactive)

Please tell me: GI50 of O=C1/C(=C/c2ccccc2)CCc2ccc([N+](=O)[O-])cc21 , system OVCAR-8?
82.6 µM (inactive)

Please tell me: GI50 of CC(=O)c1cc2c3c(c1)c1cc4c(cc1c(=O)n3CC2)OCO4 , system OVCAR-8?
8.3 µM (inactive)

====

- Test system: SK-MEL-28
- test method notes: NCI tumour cell line growth inhibition, 48 h
The source made the active and inactive calls. No stated cut-off is given here; in the data, active = GI50 up to about 1.1 µM and inactive = higher. *1 amine or outer side, *2 acyl side, *3 side chain or, on linkers, in order; H or OH if unused. Where a SMILES comes first, the peptide text is derived from it. [ ]: non-standard residue; d: D form. The star is where a group is joined. ξ: configuration not given here. X43 = CCC(=O)CC(O)CC(C)CC(N[*:1])C(=O)[*:2]; ξLeu(3ξ-OH) = CC(C)C(O)C(N)C(=O)O; ξPro(4ξ-Me) = CC1CNC(C(=O)O)C1; X42 = CCC(C)/C=C/C(=O)*; Aib = CC(C)(N)C(=O)O; X44 = CC(CN(C)C)N*; βAla = NCCC(=O)O
Respond only with the outcome that fits, drawn from YES = active, NO = inactive

Any idea what this test logged for Cc1c(N(C)C)ccc2c(=O)c3cccc(CC(=O)O)c3oc12 ?
NO

Any idea what this test logged for O=C(O)c1cc(Sc2ccc([N+](=O)[O-])c(C(=O)O)c2)ccc1[N+](=O)[O-] ?
NO

Any idea what this test logged for CCC(=O)CC(O)CC(C)CC(NC(=O)C1CC(C)CN1C(=O)/C=C/C(C)CC)C(=O)NC(C(=O)NC(C)(C)C(=O)NC(CC(C)C)C(=O)NC(CC(C)C)C(=O)NC(C)(C)C(=O)NC(C)(C)C(=O)NCCC(=O)NC(C)CN(C)C)C(O)C(C)C (stereo not drawn) (X42-[ξPro(4ξ-Me)][X43][ξLeu(3ξ-OH)][Aib]LL[Aib][Aib][βAla]-X44; configuration not given here) ?
YES

Any idea what this test logged for COc1ccc(NC(=O)CC/C(CC(=O)c2ccco2)=N/NC(=O)C(N)=O)cc1 ?
NO

Any idea what this test logged for COc1ccc2oc(=N)c(C(=O)Nc3ccccn3)cc2c1 ?
NO

Any idea what this test logged for CCC(=O)NCC1(c2c[nH]c3ccccc23)SCCS1 ?
NO

Any idea what this test logged for O=C(CC1=Nc2nnc(CCCCCCCc3nnc4n3C(=O)C(CC(=O)c3ccc5ccccc5c3)=N4)n2C1=O)c1ccc2ccccc2c1 ?
NO

Any idea what this test logged for Cc1ccc(P(c2ccc(C)cc2)c2ccc(C)cc2)cc1 ?
NO

Any idea what this test logged for CN(C)CCn1c(=O)c2ccc(NCCCN(C)CCCNc3ccc4c(=O)n(CCN(C)C)c(=O)n5c6ccccc6c(=O)c3c45)c3c(=O)c4ccccc4n(c1=O)c23 ?
YES

Any idea what this test logged for CC(=O)Oc1ccc(O)c(O)c1C/C=C(\C)CC/C=C(\C)CC/C=C(\C)CCC=C(C)C [TETRAPRENYLPHENOLSUILLIN] ?
YES

Any idea what this test logged for COc1cccc(C2c3cc4c(cc3OC(N3CCCCC3)C2C)OCO4)c1O (stereo not drawn) ?
NO

Any idea what this test logged for COc1cc(C2c3cc4c(cc3OC(Nc3ccccc3)C2C)OCO4)cc(OC)c1OC (stereo not drawn) ?
NO

Any idea what this test logged for Cc1nc2ccccc2c(=O)n1/N=C(\N=N\c1cc(Cl)ccc1Cl)c1cccc(-c2ccco2)c1 ?
NO

Any idea what this test logged for CC(=O)O[C@H]1C=CC(=O)C(C)CC1C (stereo partly drawn) ?
NO

Any idea what this test logged for Nc1ccn(C2CC(O)C(COP(=O)(S)OC3CC(n4ccc(N)nc4=O)OC3CO)O2)c(=O)n1 (stereo not drawn) ?
NO

Any idea what this test logged for N#CC1CCCCOCCOCCOCCOCCOCCCCCC1=O (stereo not drawn) ?
NO

Any idea what this test logged for C[N+]12C=CC=C1C(N1CCCC1)c1sc(-c3ccc(Cl)cc3)cc12 (stereo not drawn) ?
NO

Any idea what this test logged for Nc1nc(O)c2ncn(C3OC(CO)C(O)C3O)c2n1 (stereo not drawn) ?
NO

Any idea what this test logged for CC(C)(C)c1cc(C(=O)/C=C/C=C/c2ccccc2)cc(C(C)(C)C)c1O ?
NO

Any idea what this test logged for CCOC(=O)C1(C#N)C(C#N)(C#N)C1(C#N)C#N ?
NO

Any idea what this test logged for C[C@]12CC/C(=N\O)C=C1CC[C@@H]1C2CC[C@@]2(C)C1CC[C@@H]2OC1CCCCO1 (stereo partly drawn) ?
NO

Any idea what this test logged for COc1c(C2=NC(C(C)C)CO2)ccc2ccccc12 (stereo not drawn) ?
NO

Any idea what this test logged for C=CCOc1ccc(N)c([N+](=O)[O-])c1 ?
NO

Any idea what this test logged for CC(C)CC(=O)NC(Nc1ccc(S(=O)(=O)Nc2ncccn2)cc1)(C(F)(F)F)C(F)(F)F ?
NO

Any idea what this test logged for O=C(/C(=C/c1ccccc1)c1ccccc1)N1c2ccccc2CC1c1c[nH]c2ccccc12 (stereo not drawn) ?
NO

Any idea what this test logged for CC(=O)NC1=C(C)C(=O)c2c(nc3n2CC[C@H]3OC(C)=O)C1=O ?
NO

Any idea what this test logged for CC(C)(C)C(=O)c1c(O)c2ccccc2c2ccccc2c1=O ?
NO

Any idea what this test logged for O=S(=O)(N/C(=N\O)Nc1ccc(Cl)cc1)c1cc2ccccc2o1 ?
NO

Any idea what this test logged for COc1ccc2c(c1)CCCN1Cc3cc(OC)c(OC)cc3CC21 (stereo not drawn) ?
NO

Any idea what this test logged for CC1CC(C(=O)OC2OC(COC3OC(CO)C(OC4OC(C)C(O)C(O)C4O)C(O)C3O)C(O)C(O)C2O)C2CCC3(C)C(=CCC4(C)C3CCC3C(C)(CO)C(O)C(O)CC34C)C2C1C (stereo not drawn) ?
NO

Any idea what this test logged for CC(=O)OC12CCCCC1C1(CCCC1)NC2=O (stereo not drawn) ?
NO

Any idea what this test logged for O=C(O)CSc1nc2ccccc2[nH]1 ?
NO

Any idea what this test logged for CCOC(=O)NNC(=O)NCCNC(=O)NNC(=O)OCC ?
NO

Any idea what this test logged for CC1(C)OCN(c2ccc(N3CCOCC3)cc2)Cn2c1nc1ccccc12 ?
NO

Any idea what this test logged for NS(=O)(=O)c1ccc(NC(=O)c2cccc3c(=O)c4ccccc4[nH]c23)cc1 ?
NO

Any idea what this test logged for C/C(=N\NC(=S)N1CC2CCC(CC2)C1)c1cccc(C)n1 ?
NO

Any idea what this test logged for SC1=C2CCCCCC2=NC2(CCCCCC2)S1 ?
NO

Any idea what this test logged for O=S(=O)(N/N=C/c1ccc(Cl)c(Cl)c1)c1ccccc1 ?
NO
